# Tested on: T47D
# protocol_description: Growth inhibition of Homo sapiens (human) T47D cells at 10 uM after 48 hr by SRB assay
# Assay type: functional
# conditions_used: read-out: GI
measured_endpoint: inhibition of growth at 10 µM (%)

> print(dat)
                                    molecule              measured.endpoint  number
 1                    O=C1CNCC(=O)N1Cc1cccs1  inhibition of growth at 10 µM       8
 2  O=C(c1cc2ccccc2[nH]1)N1CC(=O)N(CCN2CCCC2)C(=O)C1  inhibition of growth at 10 µM      16
 3                   O=C1CNCC(=O)N1Cc1ccccn1  inhibition of growth at 10 µM      16
 4                   O=c1[nH]cc(F)c(=O)[nH]1  inhibition of growth at 10 µM      15
 5  O=C(c1cc2ccccc2[nH]1)N1CC(=O)N(Cc2ccccn2)C(=O)C1  inhibition of growth at 10 µM      20
 6                   O=C1CNCC(=O)N1Cc1cccnc1  inhibition of growth at 10 µM       8
 7  C[C@@H]1C[C@@H]([C@H](O)CC2CC(=O)NC(=O)C2)C(=O)[C@@H](C)C1 [CYCLOHEXIMIDE]  inhibition of growth at 10 µM      11
 8                  O=C1CNCC(=O)N1CCN1CCOCC1  inhibition of growth at 10 µM       1
 9  O=C(c1cc2ccccc2[nH]1)N1CC(=O)N(C2CCCCC2)C(=O)C1  inhibition of growth at 10 µM       7
10                    O=C1CNCC(=O)N1Cc1ccco1  inhibition of growth at 10 µM       4
11  O=C(c1cc2ccccc2[nH]1)N1CC(=O)N(Cc2ccco2)C(=O)C1  inhibition of growth at 10 µM      21
12                O=C1CCCN1CCCN1C(=O)CNCC1=O  inhibition of growth at 10 µM      21
13  O=P1(N(CCCl)CCCl)NCCCO1 (stereo not drawn) [CYCLOPHOSPHAMIDE ANHYDROUS]  inhibition of growth at 10 µM      26
